target: PPARG/RXRA LBD heterodimer (Homo sapiens (Human), UniProt P37231); assay: PPARG-MED1 blockade assay (TR-FRET); format: biochemical; details: TR-FRET, biotinylated MED1 LxxLL peptide, 80 nM Rosiglitazone, 3 hours; IC50
Sequence (P37231 whole entry, looked up, the tested form may be a part): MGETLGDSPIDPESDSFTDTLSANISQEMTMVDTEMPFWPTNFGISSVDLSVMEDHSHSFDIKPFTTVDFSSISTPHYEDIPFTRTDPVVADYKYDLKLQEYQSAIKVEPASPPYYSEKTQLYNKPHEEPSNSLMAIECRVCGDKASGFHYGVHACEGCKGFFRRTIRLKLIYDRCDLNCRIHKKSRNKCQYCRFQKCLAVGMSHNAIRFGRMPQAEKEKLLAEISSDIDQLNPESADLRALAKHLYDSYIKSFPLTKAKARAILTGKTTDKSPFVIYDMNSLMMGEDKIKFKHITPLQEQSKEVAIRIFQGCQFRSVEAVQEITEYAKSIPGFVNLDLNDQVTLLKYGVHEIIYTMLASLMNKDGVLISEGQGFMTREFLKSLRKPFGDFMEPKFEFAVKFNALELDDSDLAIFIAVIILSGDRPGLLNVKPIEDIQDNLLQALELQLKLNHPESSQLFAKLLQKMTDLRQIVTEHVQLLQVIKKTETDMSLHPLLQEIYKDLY
Sequence (P19793 whole entry partner, looked up, the tested form may be a part): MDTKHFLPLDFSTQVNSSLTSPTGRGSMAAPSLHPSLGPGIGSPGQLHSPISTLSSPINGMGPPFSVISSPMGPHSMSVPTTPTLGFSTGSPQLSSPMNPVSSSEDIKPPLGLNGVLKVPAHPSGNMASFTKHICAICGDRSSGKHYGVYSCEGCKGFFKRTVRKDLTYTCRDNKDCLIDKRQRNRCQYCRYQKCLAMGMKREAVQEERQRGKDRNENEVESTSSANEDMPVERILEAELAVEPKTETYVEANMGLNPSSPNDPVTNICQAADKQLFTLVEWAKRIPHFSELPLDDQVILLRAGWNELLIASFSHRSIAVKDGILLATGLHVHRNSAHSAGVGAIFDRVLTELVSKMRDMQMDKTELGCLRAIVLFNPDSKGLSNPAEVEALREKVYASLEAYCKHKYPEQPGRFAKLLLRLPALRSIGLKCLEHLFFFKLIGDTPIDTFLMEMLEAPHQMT
experimental endpoint: EC50

1) Cn1cc(Oc2cc(Cl)cc3[nH]c(-c4cc(C#N)ccc4S(C)(=O)=O)cc(=O)c23)cn1 [Example 4]
0.1 to 1 µM
2) CS(=O)(=O)c1ccc(C#N)cc1-c1cc(=O)c2c(Oc3ccc(Cl)cc3)cc(F)cc2[nH]1 [Example 1]
0.1 to 1 µM
3) N#Cc1ccc(Cl)c(-c2cc(=O)c3c(OCc4ccc(Cl)cc4)cc(F)cc3[nH]2)c1 [Example 6]
0.1 to 1 µM
